We begin with a simple list: items and their reported MIC.
System: Escherichia coli
Assay: Compound was tested in vitro for its minimum inhibitory concentration by serial 2-fold agar dilution Muller Hinton method against Escherichia coli O 55
Type: functional

# compound, MIC, mg/L
measured = [
    ("C=CCO/N=C(\\C(=O)NC1C(=O)N2C(C(=O)[O-])=C(CN(C)c3sc4c([n+]3C)CCCC4)CSC12)c1csc(N)n1 (configuration not stated)", 0.049),
    ("CO/N=C(\\C(=O)N[C@@H]1C(=O)N2C(C(=O)O)=C(COC(C)=O)CS[C@H]12)c1csc(N)n1", 0.007),
    ("CO/N=C(\\C(=O)NC1C(=O)N2C(C(=O)[O-])=C(CN(C)c3scc(C)[n+]3C)CSC12)c1csc(N)n1 (configuration not stated)", 0.025),
    ("CCOC(=O)c1sc(N(C)CC2=C(C(=O)[O-])N3C(=O)C(NC(=O)/C(=N\\OC)c4csc(N)n4)C3SC2)[n+](C)c1C (configuration not stated)", 0.049),
    ("CO/N=C(\\C(=O)NC1C(=O)N2C(C(=O)[O-])=C(CN(C)c3sc4c([n+]3C)CCCC4)CSC12)c1csc(N)n1 (configuration not stated)", 0.025),
    ("C=CCO/N=C(\\C(=O)NC1C(=O)N2C(C(=O)[O-])=C(CN(C)c3sc(C(=O)OCC)c(C)[n+]3C)CSC12)c1csc(N)n1 (configuration not stated)", 0.025),
    ("CO/N=C(\\C(=O)NC1C(=O)N2C(C(=O)[O-])=C(CN(C)c3scc[n+]3C)CSC12)c1csc(N)n1 (configuration not stated)", 0.025),
]
